Recorded residual activity by entry
Target: UniProt:P27448
Sequence (P27448 whole entry, looked up): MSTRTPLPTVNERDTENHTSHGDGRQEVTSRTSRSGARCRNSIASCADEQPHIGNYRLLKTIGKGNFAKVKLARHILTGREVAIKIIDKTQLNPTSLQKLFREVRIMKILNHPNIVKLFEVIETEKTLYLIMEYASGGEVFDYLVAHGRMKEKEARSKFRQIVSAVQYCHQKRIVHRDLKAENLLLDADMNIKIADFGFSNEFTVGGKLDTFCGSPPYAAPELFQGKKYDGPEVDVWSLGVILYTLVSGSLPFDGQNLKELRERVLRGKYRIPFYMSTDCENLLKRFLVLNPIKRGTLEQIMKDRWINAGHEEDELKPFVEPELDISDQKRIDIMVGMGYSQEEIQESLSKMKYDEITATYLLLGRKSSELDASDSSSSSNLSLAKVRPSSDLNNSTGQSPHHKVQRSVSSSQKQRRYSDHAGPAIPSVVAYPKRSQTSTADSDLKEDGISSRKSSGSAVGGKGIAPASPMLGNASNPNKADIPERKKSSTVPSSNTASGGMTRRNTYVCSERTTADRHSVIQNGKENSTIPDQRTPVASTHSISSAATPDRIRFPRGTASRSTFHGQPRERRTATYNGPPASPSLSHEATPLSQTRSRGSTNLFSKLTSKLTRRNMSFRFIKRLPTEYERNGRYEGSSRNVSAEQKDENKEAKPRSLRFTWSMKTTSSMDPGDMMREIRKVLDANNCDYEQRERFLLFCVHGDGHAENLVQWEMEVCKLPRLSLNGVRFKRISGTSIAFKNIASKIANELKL
Assay: radiometric filter-binding kinase assay, Kinase HotSpot
Settings: compound 0.5 µM; ATP 10 µM
value type: residual activity (%)

chemical string | value type | unit abbreviation | result number
O=C1Nc2ccc(Br)cc2/C1=C\c1cc2c([nH]1)CCCC2 | residual activity | % | 84.9
Ic1cccc(CSc2nnc(-c3ccncc3)o2)c1 | residual activity | % | 124
O=C1c2ccccc2-c2nc3nnnn3nc21 | residual activity | % | 78.1
CN(C)c1ccc(/C=C2\C(=O)Nc3ccccc32)cc1 | residual activity | % | 101
Cc1nc(-c2ccccc2)c(-c2ccncc2)o1 | residual activity | % | 107
C[C@@H]1CCN(C(=O)CC#N)C[C@@H]1N(C)c1ncnc2[nH]ccc12 | residual activity | % | 78.6
COc1ccc2c(c1)c(C1=C(c3c[nH]c4ccccc34)C(=O)NC1=O)cn2CCCN(C)C | residual activity | % | 92.2
COc1ccc(C(=O)Nc2sc3c(c2C(N)=O)CCCC3)cc1OC | residual activity | % | 94.1
COc1cc2ncnc(Nc3ccc(Oc4ccccc4)cc3)c2cc1OC | residual activity | % | 108
CO[C@@H]1[C@H](N(C)C(=O)c2ccccc2)C[C@H]2O[C@]1(C)n1c3ccccc3c3c4c(c5c6ccccc6n2c5c31)C(=O)NC4 | residual activity | % | 4.76
Cn1c2ccccc2c2c3c(c4c5ccccc5n(CCC#N)c4c21)CNC3=O | residual activity | % | 13.9
CS(=O)(=O)CCNCc1ccc(-c2ccc3ncnc(Nc4ccc(OCc5cccc(F)c5)c(Cl)c4)c3c2)o1 | residual activity | % | 95.9
COc1cc(Nc2c(C#N)cnc3cc(OCCCN4CCN(C)CC4)c(OC)cc23)c(Cl)cc1Cl | residual activity | % | 65.4
N#C/C(=C\c1ccc(O)c(O)c1)C(=O)NCc1ccccc1 | residual activity | % | 97.5
CN(C)CCCn1cc(C2=C(c3c[nH]c4ccccc34)C(=O)NC2=O)c2ccccc21 | residual activity | % | 72
O=C(c1cc2cc(O)ccc2[nH]1)c1cc2cc(O)ccc2[nH]1 | residual activity | % | 84.4
COc1ccc(S(=O)(=O)N(CCO)c2ccccc2CN(C)C/C=C/c2ccc(Cl)cc2)cc1 | residual activity | % | 102
COc1ccc2c(c1)/C(=C/c1cnc[nH]1)C(O)=N2 | residual activity | % | 56.2
O=C1NC(=O)c2c1c1c3ccccc3[nH]c1n1cncc21 | residual activity | % | 29.8
c1ccc2c(-c3ccncc3)c[nH]c2c1 | residual activity | % | 98
COc1ccc(Cl)cc1NC(=O)Nc1cc(C)nc2ccccc12 | residual activity | % | 126
Cc1cncc2cccc(S(=O)(=O)N3CCCN(C(=O)CN)C[C@H]3C)c12 | residual activity | % | 98.9
